systemName: DGAT1 (Homo sapiens)
methodNotes: Human DGAT1 IC50 enzyme assay (Flashplate, 14C-labeled acyl-CoA)
Format: biochemical
Parameters: made in house
measurementSetup: average of first and second; read-out: hDGAT1 IC50(nM) Average
measure: IC50 (nM)

1. CCc1cc(N2CCOc3ncnc(N)c3C2=O)ccc1-c1cnn(CC(C)C)c1 [Compound 90]
2. Cc1cc(N2CCOc3ncnc(N)c3C2=O)cc(C)c1-c1cn(CC(F)(F)F)nc1C [Compound 41]
Q: I'm curious, which of these has a smaller IC50 number: 1 or 2 ? When you have decided, please share the label of that item.
Ans: 2
(2: 31.3 nM, 1: 60 nM)

====

systemName: DGAT1 (Homo sapiens, UniProt O75907)
Sequence (O75907 whole entry): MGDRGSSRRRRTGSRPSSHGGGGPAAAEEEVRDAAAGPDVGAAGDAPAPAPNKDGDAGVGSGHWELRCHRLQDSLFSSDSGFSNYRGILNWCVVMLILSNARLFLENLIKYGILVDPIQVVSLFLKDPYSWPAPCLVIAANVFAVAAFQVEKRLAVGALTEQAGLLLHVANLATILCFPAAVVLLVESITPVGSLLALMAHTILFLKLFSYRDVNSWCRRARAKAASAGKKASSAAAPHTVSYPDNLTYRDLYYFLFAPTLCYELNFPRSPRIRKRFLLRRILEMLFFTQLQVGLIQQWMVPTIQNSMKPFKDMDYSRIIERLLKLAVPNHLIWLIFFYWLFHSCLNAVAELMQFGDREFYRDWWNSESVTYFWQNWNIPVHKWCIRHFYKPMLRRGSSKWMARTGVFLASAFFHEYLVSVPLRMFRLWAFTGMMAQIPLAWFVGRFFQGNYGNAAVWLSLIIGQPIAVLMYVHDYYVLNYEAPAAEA
methodNotes: In vitro assay in HEK-293 cells (13C-labeled oleic acid incorporation into TG, LC/MS/MS)
measurementSetup: HEK293 cells
pEC50: −log10 of the molar value.
measure: pEC50

[[record]]
compound = "O=C(O)C[C@H]1CC[C@H](c2ccc(-c3ccc(Nc4ccc(C(F)(F)F)nc4)cn3)cc2)CC1 [Pradigastat, reference compound]"
measure = "pEC50"
obsvalue = 8.44


a. Cc1cc(N2CCOc3ncnc(N)c3C2=O)cc(C)c1-c1cn(CC(F)(F)F)nc1C [Compound 41]
b. Cc1cc(N2CCOc3ncnc(N)c3C2=O)cc(C)c1-c1ccc2ccn(CC(F)(F)F)c(=O)c2c1 [Compound 105]
Q: Which record would sort first by descending pEC50, a or b ? Give the label of your selection.
Ans: b
(b: 8.44, a: 7.66)

====

systemName: DGAT1 (Homo sapiens, UniProt O75907)
methodNotes: Human DGAT1 IC50 enzyme assay (Flashplate, 14C-labeled acyl-CoA)
Format: biochemical
Parameters: made in house
measurementSetup: average of first and second; read-out: hDGAT1 IC50(nM) Average
measure: IC50 (nM)

Some compounds with known IC50 results, for comparison:
[[record]]
compound = "Nc1ncnc2c1C(=O)N(c1ccc3c(c1)CCC(OCC(F)(F)F)C3)CCO2 (single isomer, unassigned) [Compound 108 (peak2)]"
unitabbrev = "nM"
obsvalue = 52.6

[[record]]
compound = "Nc1ncnc2c1C(=O)N(c1ccc(N3CCN(CC4CC4)C3=O)c(Cl)c1)CCO2"
unitabbrev = "nM"
obsvalue = 24.4

[[record]]
compound = "Cc1cc(N2CCOc3ncnc(N)c3C2=O)cc(C)c1-c1cnn(C(C)(C)C(=O)O)c1"
unitabbrev = "nM"
obsvalue = 42.6

[[record]]
compound = "CC(C)(C)Cn1cc(-c2ccc(N3CCOc4ncnc(N)c4C3=O)cc2Cl)cn1"
unitabbrev = "nM"
obsvalue = 25.7

[[record]]
compound = "Nc1ncnc2c1C(=O)N(c1ccc(N3CCN(CC(=O)O)C3=O)c(C(F)(F)F)c1)CCO2"
unitabbrev = "nM"
obsvalue = 58.9


A. CC(C)(F)Cn1cc(-c2ccc(N3CCOc4ncnc(N)c4C3=O)cc2Cl)cn1
B. CC(C)Cn1cc(-c2ccc(N3C(=O)c4c(N)ncnc4OC[C@H]3C)cc2Cl)cn1
C. CC(C)(C(=O)O)n1cc(-c2ccc(N3CCOc4ncnc(N)c4C3=O)cc2Cl)cn1
Q: Arrange these 3 compounds in increasing order of IC50. Response field: labels, in requested order.
Ans: A, C, B
(A: 20 nM, C: 36.8 nM, B: 70.5 nM)
